ASSAY: Pharmacokinetics after intranasal administration
Type: in vivo, mouse
TEST PARAMETERS: B6C3F1, mouse, brain and plasma, inhaled or intranasal, 100 mg/kg
EXPERIMENTAL ENDPOINT: Kp

> print(dat)
           smiles.data  experimental.endpoint  result
1  CC=Cc1ccc(O)c(OC)c1                     Kp    0.23

====

ASSAY: Pharmacokinetics after intranasal administration
Assay type: in vivo, mouse
TEST PARAMETERS: B6C3F1, mouse, lung and plasma, inhaled or intranasal, 100 mg/kg
EXPERIMENTAL ENDPOINT: Kp

> print(dat)
           smiles.data  quantitative.readout
1  CC=Cc1ccc(O)c(OC)c1                  6.73
